Molecular target: CDK2/cyclin A (Homo sapiens)
Construct: made in house; host or cells: CDK2: insect cells (baculovirus); cyclin A: E. coli
Test: Inhibition of CDK2/cyclin A retinoblastoma kinase activity (Ki; % inhibition)
Assay type: biochemical
Details: 0.03 μM compound
READOUT KIND: CDK2 % Inhibition at 0.03 μM (%)
Report only the number, with the unit % understood.

Look over these answered cases.
CPD SMILES: CCN(CC)CCN(C)C(=O)c1ccc(Nc2nc(N)c(C(=O)c3c(F)cccc3F)s2)cc1
TEST RESULT: −9

CPD SMILES: Cc1ccc(CNC(=O)c2ccc(Nc3nc(N)c(C(=O)c4c(F)cccc4F)s3)cc2)cc1
TEST RESULT: 16

CPD SMILES: CCN(C(=O)c1ccc(Nc2nc(N)c(C(=O)c3c(F)cccc3F)s2)cc1)C1CCCCC1
TEST RESULT: −10

CPD SMILES: COc1cccc(CNC(=O)c2ccc(Nc3nc(N)c(C(=O)c4c(F)cccc4F)s3)cc2)c1
TEST RESULT: 32

In plain terms, C=CCN(C(=O)c1ccc(Nc2nc(N)c(C(=O)c3c(F)cccc3F)s2)cc1)C1CCCCC1 has a documented CDK2 % Inhibition at 0.03 μM of −15
